# Tested on: Streptococcus pyogenes
# experiment description: Minimal inhibitory activity against the Streptococcus pyogenes (C203)
# Assay type: functional
test readout: MIC (µg/mL)

smiles_string=CO/N=C(\C(=O)N[C@@H]1C(=O)N2C(C(=O)[O-])=C([n+]3cccc4c3CCC4)CC[C@H]12)c1csc(N)n1 recorded_result=0.03
smiles_string=CO/N=C(\C(=O)N[C@@H]1C(=O)N2C(C(=O)[O-])=C([n+]3cccc4c3CCCC4)CC[C@H]12)c1csc(N)n1 recorded_result=0.06
smiles_string=CC(C)(O/N=C(\C(=O)N[C@@H]1C(=O)N2C(C(=O)[O-])=C(C[n+]3ccccc3)CS[C@H]12)c1csc(N)n1)C(=O)O recorded_result=0.06
smiles_string=CO/N=C(\C(=O)N[C@@H]1C(=O)N2C(C(=O)[O-])=C([n+]3ccc(C)c(C)c3)CC[C@H]12)c1csc(N)n1 recorded_result=0.03
smiles_string=CO/N=C(\C(=O)N[C@@H]1C(=O)N2C(C(=O)[O-])=C([n+]3ccccc3)CC[C@H]12)c1csc(N)n1 recorded_result=0.03
smiles_string=Cc1cc[n+](C2=C(C(=O)[O-])N3C(=O)[C@@H](NC(=O)/C(=N\OCc4ccccc4)c4csc(N)n4)[C@H]3CC2)cc1C recorded_result=0.03
smiles_string=CO/N=C(\C(=O)N[C@@H]1C(=O)N2C(C(=O)[O-])=C([n+]3ccc4c(c3)ncn4C)CC[C@H]12)c1csc(N)n1 recorded_result=0.06
smiles_string=CO/N=C(\C(=O)N[C@@H]1C(=O)N2C(C(=O)[O-])=C([n+]3cc(C)ccc3C)CC[C@H]12)c1csc(N)n1 recorded_result=0.03

====

# Tested on: Morganella morganii
# experiment description: Minimal inhibitory activity against the Proteus morganii (PR15)
# Format: functional
Hi! Just check whether MIC is below 0.5 µg/mL. Below gives yes (1), equal or above gives no (0).

smiles_string=CO/N=C(\C(=O)N[C@@H]1C(=O)N2C(C(=O)[O-])=C([n+]3ccccc3)CC[C@H]12)c1csc(N)n1 tested_target="Morganella morganii" discrete_label="yes (1)"
smiles_string=CO/N=C(\C(=O)N[C@@H]1C(=O)N2C(C(=O)[O-])=C([n+]3cc(C)ccc3C)CC[C@H]12)c1csc(N)n1 tested_target="Morganella morganii" discrete_label="yes (1)"
smiles_string=CO/N=C(\C(=O)N[C@@H]1C(=O)N2C(C(=O)[O-])=C([n+]3ccc(C)c(C)c3)CC[C@H]12)c1csc(N)n1 tested_target="Morganella morganii" discrete_label="yes (1)"
smiles_string=CO/N=C(\C(=O)N[C@@H]1C(=O)N2C(C(=O)[O-])=C([n+]3cccc4c3CCC4)CC[C@H]12)c1csc(N)n1 tested_target="Morganella morganii" discrete_label="yes (1)"
smiles_string=Cc1cc[n+](C2=C(C(=O)[O-])N3C(=O)[C@@H](NC(=O)/C(=N\OCc4ccccc4)c4csc(N)n4)[C@H]3CC2)cc1C tested_target="Morganella morganii" discrete_label="no (0)"
smiles_string=CO/N=C(\C(=O)N[C@@H]1C(=O)N2C(C(=O)[O-])=C([n+]3cccc4c3CCCC4)CC[C@H]12)c1csc(N)n1 tested_target="Morganella morganii" discrete_label="no (0)"

====

Quick list: Recovery per entry.
# Species on record: Rattus norvegicus
# experiment description: Urinary recovery was evaluated for pharmacokinetic data in rats
# Type: organism-based
# study conditions: Urine
test readout: Recovery (%)

smiles_string=CO/N=C(\C(=O)N[C@@H]1C(=O)N2C(C(=O)[O-])=C([n+]3cccc4c3CCC4)CC[C@H]12)c1csc(N)n1 test_readout=Recovery recorded_result=82.3
smiles_string=CO/N=C(\C(=O)N[C@@H]1C(=O)N2C(C(=O)[O-])=C(C[n+]3ccccc3)CC[C@H]12)c1csc(N)n1 test_readout=Recovery recorded_result=87.9
smiles_string=CO/N=C(\C(=O)N[C@@H]1C(=O)N2C(C(=O)[O-])=C([n+]3ccccc3)CC[C@H]12)c1csc(N)n1 test_readout=Recovery recorded_result=82.6
smiles_string=CC(C)(O/N=C(\C(=O)N[C@@H]1C(=O)N2C(C(=O)[O-])=C(C[n+]3ccccc3)CS[C@H]12)c1csc(N)n1)C(=O)O test_readout=Recovery recorded_result=100
